This collection of values is drawn from ChEMBL document CHEMBL1275385.

target under test: Sodium channel protein type 10 subunit alpha (Rattus norvegicus, UniProt Q62968)
Sequence (Q62968 whole entry): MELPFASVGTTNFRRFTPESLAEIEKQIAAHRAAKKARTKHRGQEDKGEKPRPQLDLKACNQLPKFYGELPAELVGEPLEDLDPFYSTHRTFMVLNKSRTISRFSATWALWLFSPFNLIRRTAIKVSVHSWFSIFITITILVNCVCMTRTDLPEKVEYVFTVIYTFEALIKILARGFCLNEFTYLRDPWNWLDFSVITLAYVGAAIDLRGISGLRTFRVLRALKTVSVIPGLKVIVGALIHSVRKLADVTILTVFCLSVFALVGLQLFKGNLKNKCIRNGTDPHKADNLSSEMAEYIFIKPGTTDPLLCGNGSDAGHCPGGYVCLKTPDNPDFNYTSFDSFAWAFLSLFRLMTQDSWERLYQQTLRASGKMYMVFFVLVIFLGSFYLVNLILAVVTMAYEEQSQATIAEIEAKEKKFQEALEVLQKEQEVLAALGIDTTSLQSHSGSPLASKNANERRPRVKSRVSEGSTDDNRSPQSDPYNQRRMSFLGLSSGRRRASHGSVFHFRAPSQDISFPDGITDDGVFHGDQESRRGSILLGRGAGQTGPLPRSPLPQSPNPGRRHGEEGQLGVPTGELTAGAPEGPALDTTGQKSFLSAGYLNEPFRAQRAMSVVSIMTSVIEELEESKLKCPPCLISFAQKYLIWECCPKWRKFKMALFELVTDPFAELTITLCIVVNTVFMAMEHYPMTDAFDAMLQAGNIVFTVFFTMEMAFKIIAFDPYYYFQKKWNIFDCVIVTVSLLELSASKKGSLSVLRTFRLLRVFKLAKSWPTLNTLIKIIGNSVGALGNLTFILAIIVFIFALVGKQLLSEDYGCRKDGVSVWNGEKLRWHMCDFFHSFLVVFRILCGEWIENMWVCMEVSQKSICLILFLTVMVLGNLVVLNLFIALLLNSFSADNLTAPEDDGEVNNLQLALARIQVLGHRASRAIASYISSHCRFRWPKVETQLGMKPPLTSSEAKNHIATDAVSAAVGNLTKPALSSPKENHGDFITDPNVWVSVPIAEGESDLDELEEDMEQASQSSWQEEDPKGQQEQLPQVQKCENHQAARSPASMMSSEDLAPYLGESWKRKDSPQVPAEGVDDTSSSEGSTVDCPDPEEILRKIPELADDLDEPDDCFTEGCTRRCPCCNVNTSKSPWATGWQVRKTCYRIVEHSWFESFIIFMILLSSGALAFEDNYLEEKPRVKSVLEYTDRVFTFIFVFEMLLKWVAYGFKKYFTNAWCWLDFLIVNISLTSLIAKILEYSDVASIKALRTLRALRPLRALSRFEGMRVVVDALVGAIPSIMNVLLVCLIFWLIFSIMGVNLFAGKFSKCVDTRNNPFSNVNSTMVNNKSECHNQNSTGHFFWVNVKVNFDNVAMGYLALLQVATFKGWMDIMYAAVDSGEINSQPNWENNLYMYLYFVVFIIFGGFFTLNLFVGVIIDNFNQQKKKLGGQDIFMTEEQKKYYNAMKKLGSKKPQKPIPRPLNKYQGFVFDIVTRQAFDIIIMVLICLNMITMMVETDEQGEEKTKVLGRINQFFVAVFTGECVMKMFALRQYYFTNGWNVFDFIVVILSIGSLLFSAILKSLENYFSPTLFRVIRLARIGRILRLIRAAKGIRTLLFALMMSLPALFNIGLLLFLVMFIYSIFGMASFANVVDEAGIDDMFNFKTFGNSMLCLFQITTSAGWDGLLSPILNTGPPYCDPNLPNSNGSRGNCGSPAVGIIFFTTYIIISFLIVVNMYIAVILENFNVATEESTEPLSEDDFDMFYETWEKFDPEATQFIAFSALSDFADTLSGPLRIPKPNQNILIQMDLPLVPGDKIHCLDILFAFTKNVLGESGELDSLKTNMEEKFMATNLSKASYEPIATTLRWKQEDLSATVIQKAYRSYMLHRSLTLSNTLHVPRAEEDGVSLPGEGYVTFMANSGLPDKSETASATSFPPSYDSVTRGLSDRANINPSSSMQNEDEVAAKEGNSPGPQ
assay method text: Inhibition of tetrodotoxin-resistant NaV1.8 in rat dorsal root ganglion neurons at holding potential -100 mV by whole-cell patch clamp electrophysiology assay
parameter measured: IC50 (nM)
One number for each entry, in nM.

smiles entry	u	IC50
O=C(NCc1cccnc1N1CCOCC1)c1cncc(-c2ccc(Cl)cc2)n1	nM	280
Cc1cc(C)cc(NC(=O)c2cncc(-c3ccc(Cl)cc3)n2)c1	nM	52
O=C(NCc1cccnc1N1CCOCC1)c1cncc(-c2ccc(OC(F)(F)F)cc2)n1	nM	85

Now examine the next entry.
Memo: `Cc1ccccc1CNC(=O)c1cncc(-c2ccc(C#N)cc2)n1` , reported IC50: 450

###

target under test: Sodium channel protein type 10 subunit alpha (Rattus norvegicus)
assay method text: Inhibition of tetrodotoxin-resistant NaV1.8 in rat dorsal root ganglion neurons at holding potential -100 mV by whole-cell patch clamp electrophysiology assay
parameter measured: IC50 (nM)
Numbers only, in nM.

Record excerpt, results attached:
smiles entry	parameter measured	u	measured number
Cc1ccccc1CNC(=O)c1cncc(-c2ccc(Cl)cc2)n1	IC50	nM	110
O=C(NCc1cccnc1Cl)c1cncc(-c2ccc(OC(F)(F)F)cc2)n1	IC50	nM	90

Now examine the next entry.
// assay Sodium channel protein type 10 subunit alpha (Rattus norvegicus), entry `CCOc1ccc(-c2cncc(C(=O)Nc3cccc(C)c3)n2)cc1` , IC50 value = 68

###

target under test: Sodium channel protein type 10 subunit alpha (Mus musculus, UniProt Q6QIY3)
Sequence (Q6QIY3 whole entry): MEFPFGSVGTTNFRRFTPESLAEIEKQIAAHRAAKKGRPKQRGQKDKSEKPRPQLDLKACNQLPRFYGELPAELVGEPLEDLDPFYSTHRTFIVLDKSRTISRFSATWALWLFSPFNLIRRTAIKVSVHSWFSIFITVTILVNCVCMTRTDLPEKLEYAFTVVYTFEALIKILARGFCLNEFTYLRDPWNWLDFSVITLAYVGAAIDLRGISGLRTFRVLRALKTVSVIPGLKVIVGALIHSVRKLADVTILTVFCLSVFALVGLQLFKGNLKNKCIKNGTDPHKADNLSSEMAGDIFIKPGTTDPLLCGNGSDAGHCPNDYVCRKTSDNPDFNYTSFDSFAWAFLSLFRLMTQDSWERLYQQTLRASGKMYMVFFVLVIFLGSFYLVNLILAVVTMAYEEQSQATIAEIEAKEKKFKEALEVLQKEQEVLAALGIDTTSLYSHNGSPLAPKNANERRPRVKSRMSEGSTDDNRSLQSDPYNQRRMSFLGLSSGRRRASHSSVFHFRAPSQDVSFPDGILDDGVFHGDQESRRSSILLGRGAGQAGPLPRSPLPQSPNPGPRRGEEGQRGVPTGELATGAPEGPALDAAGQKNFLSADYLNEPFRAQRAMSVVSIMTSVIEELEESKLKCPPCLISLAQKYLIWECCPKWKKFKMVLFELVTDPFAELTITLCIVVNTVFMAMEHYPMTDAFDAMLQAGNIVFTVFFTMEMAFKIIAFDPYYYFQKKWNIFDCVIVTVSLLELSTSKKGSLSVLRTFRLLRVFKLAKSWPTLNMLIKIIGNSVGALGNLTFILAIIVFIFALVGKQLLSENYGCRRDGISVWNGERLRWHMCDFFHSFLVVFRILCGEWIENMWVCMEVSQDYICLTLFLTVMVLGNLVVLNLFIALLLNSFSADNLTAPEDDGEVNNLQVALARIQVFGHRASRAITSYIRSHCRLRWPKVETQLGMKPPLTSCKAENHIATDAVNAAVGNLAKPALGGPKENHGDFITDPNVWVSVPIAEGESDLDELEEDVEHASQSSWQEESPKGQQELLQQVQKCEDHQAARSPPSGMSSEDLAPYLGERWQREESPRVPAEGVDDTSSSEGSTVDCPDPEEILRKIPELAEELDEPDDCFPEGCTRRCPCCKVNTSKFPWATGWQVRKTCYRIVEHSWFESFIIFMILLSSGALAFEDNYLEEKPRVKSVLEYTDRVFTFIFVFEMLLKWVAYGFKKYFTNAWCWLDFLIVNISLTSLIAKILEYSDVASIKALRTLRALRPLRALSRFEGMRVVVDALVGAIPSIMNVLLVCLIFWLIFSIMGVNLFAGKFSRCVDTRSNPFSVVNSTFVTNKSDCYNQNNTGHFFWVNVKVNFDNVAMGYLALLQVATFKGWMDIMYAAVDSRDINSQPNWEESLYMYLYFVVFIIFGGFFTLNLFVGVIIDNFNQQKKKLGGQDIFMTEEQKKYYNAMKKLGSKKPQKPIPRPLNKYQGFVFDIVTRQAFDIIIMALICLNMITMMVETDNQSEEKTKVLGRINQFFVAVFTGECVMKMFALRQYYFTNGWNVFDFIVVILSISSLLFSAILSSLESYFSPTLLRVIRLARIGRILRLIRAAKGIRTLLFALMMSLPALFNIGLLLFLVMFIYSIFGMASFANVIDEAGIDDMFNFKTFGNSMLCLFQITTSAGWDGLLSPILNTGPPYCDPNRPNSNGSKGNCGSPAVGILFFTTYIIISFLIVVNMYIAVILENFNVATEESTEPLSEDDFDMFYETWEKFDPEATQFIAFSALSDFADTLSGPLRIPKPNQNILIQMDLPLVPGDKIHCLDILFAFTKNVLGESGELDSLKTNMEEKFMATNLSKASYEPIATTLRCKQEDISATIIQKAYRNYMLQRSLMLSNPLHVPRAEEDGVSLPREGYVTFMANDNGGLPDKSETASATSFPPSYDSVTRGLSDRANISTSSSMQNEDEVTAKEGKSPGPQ
assay method text: Inhibition of mouse NaV1.8 expressed in HEK293 cells by isotopic efflux assay
parameter measured: pIC50
Answers are plain numbers, as −log10 of the molar value.

# count of solved cases: 4
smiles entry	pIC50
Cc1ccccc1CNC(=O)c1cncc(-c2ccc(Cl)cc2)n1	5.87
Cc1cccc(NC(=O)c2cncc(-c3ccc(Cl)cc3)n2)c1	6.02
COc1cc(NC(=O)c2cncc(-c3ccc(Cl)cc3)n2)cc(OC)c1	5.97
CC(C)Oc1cccc(NC(=O)c2cncc(-c3ccc(C#N)cc3)n2)c1	6.14

Record summary for `O=C(NCc1cccnc1Cl)c1cncc(-c2ccc(OC(F)(F)F)cc2)n1` : reported pIC50 = 5.99

###

Organism: Homo sapiens
assay method text: Selectivity ratio of IC50 for human NAv1.8 to IC50 for human Nav1.2
parameter measured: Ratio IC50

Here's what some known entries look like.
smiles entry	Ratio IC50
COc1cc(NC(=O)c2cncc(-c3ccc(Cl)cc3)n2)cc(OC)c1	> 1000
Cc1cc(C)cc(NC(=O)c2cncc(-c3ccc(Cl)cc3)n2)c1	> 1000

// Ratio IC50 value for `Cc1cccc(NC(=O)c2cncc(-c3ccc(Cl)cc3)n2)c1` : > 1000
